Please provide measured uncoupling P1/peptide (x IC50/h) for the entries that follow.
TESTED SYSTEM: enzyme I (phosphoenolpyruvate-protein-phosphatase, EC 2.7.3.9) of the bacterial phosphotransferase system (E. coli, UniProt P08839 1-575)
PROTOCOL: cell-based or functional assay
Numbers only; they are read as x IC50/h.

Sample KKFHLRK [peptide 1] — what was its uncoupling P1/peptide (x IC50/h)?
3.2

Would you mind telling me what uncoupling P1/peptide (x IC50/h) value was observed for KKFHIRKR [peptide 9] ?
132

What value of uncoupling P1/peptide (x IC50/h) has been recorded for this entry: KKWHKRKK [peptide 8]
64.2

Field request: uncoupling P1/peptide (x IC50/h) | item: KKFALRK [peptide 2]
6.6
